Molecular target: Human SARS-CoV S (SARS-CoV, UniProt P59594 14-1190)
Assay: flow cytometry SVNA: VHH-Fc inhibits S binding to ACE2 on Vero E6 cells
Reported IC50 values follow for various binders
experimental.endpoint: IC50 (nM)

[[record]]
binder = "NRCoV2-18 VHH-Fc (Fc fusion, bivalent VHH-Fc) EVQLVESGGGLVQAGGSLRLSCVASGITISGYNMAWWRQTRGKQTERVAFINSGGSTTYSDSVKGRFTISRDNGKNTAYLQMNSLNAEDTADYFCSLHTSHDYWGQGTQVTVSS"
experimental_endpoint = "IC50"
scale_unit = "nM"
reported_value = 12.7

[[record]]
binder = "NRCoV2-11 VHH-Fc (Fc fusion, bivalent VHH-Fc) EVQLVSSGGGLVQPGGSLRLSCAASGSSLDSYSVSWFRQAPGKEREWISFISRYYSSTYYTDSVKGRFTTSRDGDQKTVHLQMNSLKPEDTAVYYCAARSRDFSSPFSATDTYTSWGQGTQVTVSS"
experimental_endpoint = "IC50"
scale_unit = "nM"
reported_value = 7.7

[[record]]
binder = "NRCoV2-SR13 VHH-Fc (Fc fusion, bivalent VHH-Fc) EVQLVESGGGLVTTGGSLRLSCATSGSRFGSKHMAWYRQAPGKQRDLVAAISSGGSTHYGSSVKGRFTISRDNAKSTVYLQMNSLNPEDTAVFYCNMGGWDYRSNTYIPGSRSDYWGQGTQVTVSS"
experimental_endpoint = "IC50"
scale_unit = "nM"
reported_value = 15

[[record]]
binder = "NRCoV2-07 VHH-Fc (Fc fusion, bivalent VHH-Fc) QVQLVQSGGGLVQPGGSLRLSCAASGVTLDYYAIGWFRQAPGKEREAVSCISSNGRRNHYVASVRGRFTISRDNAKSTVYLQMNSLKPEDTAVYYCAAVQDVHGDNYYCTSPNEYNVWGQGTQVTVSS"
experimental_endpoint = "IC50"
scale_unit = "nM"
reported_value = 4.2

[[record]]
binder = "NRCoV2-SR01 VHH-Fc (Fc fusion, bivalent VHH-Fc) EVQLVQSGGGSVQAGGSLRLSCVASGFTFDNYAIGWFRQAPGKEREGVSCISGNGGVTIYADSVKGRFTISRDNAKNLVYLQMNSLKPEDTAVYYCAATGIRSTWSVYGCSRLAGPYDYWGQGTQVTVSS"
experimental_endpoint = "IC50"
scale_unit = "nM"
reported_value = 5.1

[[record]]
binder = "NRCoV2-12 VHH-Fc (Fc fusion, bivalent VHH-Fc) EVQLQQSGGGLVQAGGSLRLSCAASGRTFRNYVMGWFRQAPQAPGKDHEFVAAISWGGTEIYYADSVKGRFTISRDNAKNTVYLQMNSLKPEDTAVYYCAADRGLSYYYTRTTEYNYWGQGTQVTVSS"
experimental_endpoint = "IC50"
scale_unit = "nM"
reported_value = 3.1

